Please respond with reported %Inh for every item in the list.
# System: SIK
# reported_conditions: concentration: 1 μM, replicates: in singlicate; n = 1;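 note: KINOMEscan kinase panel screen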
Give the number; % is assumed, so skip it.

Query: May I ask what %Inh has been recorded for Cl.NC(=O)c1cccc(Nc2nccc(Nc3ccc(Oc4c(Cl)cccc4Cl)c(Cl)c3)n2)c1 ?
Result: 90.2

Query: Field entry: COc1cc(Nc2ncc3c(C)nc(-c4cc5ccccc5[nH]4)n3n2)cc(OC)c1OC
Result: 20

Query: Try this compound too: O=C(Nc1cccc(-c2nn3ccccc3c2-c2ccnc(Nc3cccc(F)c3)n2)c1)c1c(F)ccc(F)c1Cl
Result: 34

Query: Consider next the compound COc1ccc(Nc2nccc(N3CCC(NC(=O)Nc4cccc(OC)c4)C3)n2)cc1 (stereo not drawn) in the same way.
Result: 0

Query: Next record, please: C[C@@H](Oc1cc(-n2cnc3cc(-c4ccnc(NCCS(C)(=O)=O)c4)ccc32)sc1C(N)=O)c1ccccc1Cl
Result: 20

Query: Thanks! And COc1cc(Nc2nccc(-c3c(-c4cccc(NC(=O)c5c(F)cccc5F)c4)nn4ccccc34)n2)cc(OC)c1OC ?
Result: 30

Query: Request: Nc1n[nH]c2cnc(-c3ccccc3)cc12
Result: 0

Query: And then COc1cccc(NC(=O)NC2CCN(c3ccnc(Nc4cc(OC)c(OC)c(OC)c4)n3)C2)c1 (stereo not drawn) , what is it?
Result: 0

Query: // same read-out, input: Nc1ncc(-c2cccnc2)c2scc(-c3ccc4c(c3)CCN4C(=O)Cc3ccccc3)c12
Result: 19

###

# Tested on: INSR
# reported_conditions: concentration: 1 μM, replicates: in singlicate; n = 1
Exercise: state measured %Inh for each of the molecules provided.
Express the result in % but write the number alone.

Query: For the molecule COc1cccc(NC(=O)NC2CCN(c3ccnc(Nc4cc(OC)c(OC)c(OC)c4)n3)C2)c1 (centres unmarked) , what %Inh is on record?
Result: 0

Query: Then this molecule: CN(C)S(=O)(=O)c1cc(-c2ccc3nccc(-c4cccc(S(N)(=O)=O)c4)c3c2)cnc1N
Result: 42

Query: And then c1ccc(Oc2ccc(Nc3ccnc4cc(-c5ccc(CNCCN6CCOCC6)o5)ccc34)cc2)nc1 , what is it?
Result: 11

Query: Okay, and COc1cc(Nc2nccc(-c3c(-c4cccc(NC(=O)c5c(F)cccc5F)c4)nn4ncccc34)n2)cc(OC)c1OC ?
Result: 64

Query: And the next one, COC(=O)Nc1nc2cc(Oc3ccc(NC(=O)Nc4cc(C(F)(F)F)ccc4F)cn3)ccc2[nH]1.Cl.Cl ?
Result: 0

Query: What do you get for Cl.NC(=O)c1cccc(Nc2nccc(Nc3ccc(Oc4c(Cl)cccc4Cl)c(Cl)c3)n2)c1 ?
Result: 0

Query: Another molecule: CCS(=O)(=O)c1ccc(OC)c(Nc2nccc(-c3c(-c4cccc(NC(=O)c5c(F)cccc5F)c4)nn4ncccc34)n2)c1
Result: 45

Query: Same thing, different molecule: COC(=O)Nc1nc2ccc(Oc3ccc(NC(=O)Nc4cc(C(F)(F)F)ccc4F)cc3)cc2n1C.Cl
Result: 0

Query: Please give the result for CN(C)Cc1ccc(-c2ccc3c(Nc4ccc(Oc5ccccn5)cc4)ccnc3c2)o1 too.
Result: 6

Query: Ok, now COc1ccc(-c2coc3ccc(-c4nnc(SCc5ccc(OC)c(C(F)(F)F)c5)o4)cc23)cc1
Result: 25

Query: COc1ccc(Nc2nccc(NCCNC(=O)c3cc4ccccc4s3)n2)cc1 ?
Result: 0

Query: Another: COc1cc(Nc2nccc(N3CCC(NC(=O)c4cc5ccccc5s4)C3)n2)cc(OC)c1OC (centres unmarked)
Result: 5

Query: Now this one: CCn1c(-c2nonc2N)nc2c(C#CC(C)(C)O)nc(OC[C@H](N)c3ccccc3)cc21
Result: 0

Query: Now give it for Clc1ccc(-c2nn3ncccc3c2-c2ccnc(Nc3ccc4c(c3)OCCO4)n2)cc1 too.
Result: 0

Query: Same read-out for CC(C)(C)c1ccc2nccc(Nc3cccc(O)c3)c2c1 ?
Result: 0

Query: // same read-out, input: CN(c1ccc(NC(=O)Nc2cc(C(F)(F)F)ccc2F)cc1)c1ccnc(Nc2ccc(S(N)(=O)=O)cc2)n1
Result: 15

Query: CSc1cccc2c(-c3ccncn3)c(-c3ccc(F)cc3)nn12 , same question.
Result: 10

Query: How about COCCOCCOc1cc2ncc3c4ccc(C#N)cc4[nH]c3c2cc1OC ?
Result: 0

Query: Next up: Cl.c1ccc(-c2ccc3c(Nc4ccc5[nH]ncc5c4)ccnc3c2)nc1
Result: 15

Query: Item: Nc1ncnc2c1nc(-c1ccccc1)n2-c1ccccc1
Result: 7

Query: Please give the result for CC(C)c1nc(-c2cccc(NS(=O)(=O)c3c(F)cccc3F)c2F)c(-c2ccnc(Nc3ccc(N4CCOCC4)nc3)n2)s1 too.
Result: 4

Query: Please answer likewise for O=C(O)C(F)(F)F.O=C(O)C(F)(F)F.O=c1[nH]ccc2nc(N[C@@H]3CCCNC3)nc(Nc3ccc(S(=O)(=O)N4CCOCC4)cc3)c12
Result: 97.6

Query: Now the same for CN1CCN(Cc2cccc(-c3ccc4c(Nc5ccc(Oc6ccccc6)cc5)ccnc4c3)c2)CC1
Result: 0
